Entries and their measured pIC50 follow.
- assay: Inhibition of HCV1b NS5B polymerase
- Set-up: species or system Hepatitis C virus subtype 1b
Quick note: pIC50 values are minus log10 of concentrations in mol/L.

Previously resolved entries follow.
[[record]]
chemicalstructure = "C[C@@]1(O)[C@H](O)[C@@H](CO)O[C@@]1(C#N)n1ccc(=O)[nH]c1=O"
numericvalue = 4.57

[[record]]
chemicalstructure = "C[C@@]1(O)[C@H](O)[C@@H](CO)O[C@@]1(C#N)n1ccc(N)nc1=O"
numericvalue = 4.75


Now look at this entry.
`C[C@@]1(O)[C@H](O)[C@@H](CO)O[C@H]1n1ccc(N)nc1=O` has a reported pIC50 of 5.78
